# target entity: human DGKζ (Homo sapiens, UniProt Q13574)
# Construct: TVMV protease cleavage site (C); Hexa-His (C); made in house; host or cells: Sf9 insect cells (baculovirus, Bac-to-Bac)
# Sequence (Q13574 with tags, fused parts or gaps isoform Q13574-4): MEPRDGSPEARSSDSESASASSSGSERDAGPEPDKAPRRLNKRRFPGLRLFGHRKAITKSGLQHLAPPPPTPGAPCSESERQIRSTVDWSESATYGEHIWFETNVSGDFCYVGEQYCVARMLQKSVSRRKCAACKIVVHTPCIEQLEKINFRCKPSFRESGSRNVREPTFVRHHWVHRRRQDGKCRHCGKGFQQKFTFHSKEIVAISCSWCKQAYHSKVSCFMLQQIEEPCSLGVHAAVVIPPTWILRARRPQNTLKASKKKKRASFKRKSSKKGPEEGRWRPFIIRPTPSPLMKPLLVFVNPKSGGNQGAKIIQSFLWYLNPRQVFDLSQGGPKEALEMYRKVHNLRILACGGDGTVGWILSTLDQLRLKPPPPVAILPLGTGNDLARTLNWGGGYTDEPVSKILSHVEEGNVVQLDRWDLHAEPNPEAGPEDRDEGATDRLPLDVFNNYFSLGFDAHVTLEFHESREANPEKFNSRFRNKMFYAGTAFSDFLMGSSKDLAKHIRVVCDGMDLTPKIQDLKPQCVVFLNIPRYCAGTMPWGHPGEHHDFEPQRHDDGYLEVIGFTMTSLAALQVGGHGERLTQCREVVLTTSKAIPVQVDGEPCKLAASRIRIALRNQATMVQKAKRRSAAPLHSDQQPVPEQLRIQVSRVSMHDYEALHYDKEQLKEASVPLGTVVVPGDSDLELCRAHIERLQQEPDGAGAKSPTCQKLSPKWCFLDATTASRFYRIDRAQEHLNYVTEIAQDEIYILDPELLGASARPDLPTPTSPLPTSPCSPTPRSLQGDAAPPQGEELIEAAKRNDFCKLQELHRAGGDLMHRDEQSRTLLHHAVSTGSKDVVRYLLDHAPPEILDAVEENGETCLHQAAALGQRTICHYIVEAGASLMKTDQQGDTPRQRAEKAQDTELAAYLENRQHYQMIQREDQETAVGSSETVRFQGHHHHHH
# procedure summary: DGKζ LIPGLO assay (extruded liposome substrate), in vitro DGK inhibition
# Assay type: biochemical
# test context: liposome (LIPGLO) assay; read-out: DGKz LIPGLO IC50
Decide using IC50 alone. Strictly below 2 µM: 1 (yes). Equal to or above 2 µM: 0 (no).

Input: Determine whether this molecule shows IC50 lower than 2 µM (ties excluded): C[C@H]1CN(C(c2ccc(F)cc2)c2ccc(F)cc2)[C@H](CO)CN1c1cc(=O)n(C)c2ccc(C#N)nc12 [Example 1151]
Output: 0 (no)

Input: Moving on to the next molecule: [2H]C(CC)(c1ccc(F)cc1)N1C[C@H](C)N(c2cc(=O)n(C)c3ccc(C#N)nc23)C[C@H]1C (single isomer, unassigned) [Example 574]
Output: 0 (no)

Input: Moving on to the next molecule: CC[C@@H]1CN(c2cc(=O)n(C)c3ccc(C#N)nc23)[C@@H](C)CN1C(C)c1ccc(C(F)(F)F)cc1 (single isomer, unassigned) [Example 1094]
Output: 0 (no)

Input: Moving on to the next molecule: CC[C@H]1CN(C(c2ccc(F)cc2)c2cccc(C(F)(F)F)n2)[C@H](C)CN1c1cc(=O)n(C)c2ccc(C#N)nc12 (single isomer, unassigned) [Example 1133]
Output: 1 (yes)

Input: Moving on to the next molecule: CC(c1ccc(C(F)(F)F)cn1)N1C[C@H](C)N(c2cc(=O)n(C)c3ccc(C#N)nc23)C[C@H]1C (single isomer, unassigned) [Example 642]
Output: 1 (yes)

Input: Moving on to the next molecule: C[C@@H]1CN(c2cc(=O)n(C)c3ccc(C#N)nc23)[C@@H](C)CN1C(c1ccc(F)cc1)c1cncnc1 (single isomer, unassigned) [Example 393]
Output: 0 (no)

Input: Moving on to the next molecule: CC(c1ccc(C2(C#N)CC2)cc1F)N1C[C@H](C)N(c2cc(=O)n(C)c3ccc(C#N)nc23)C[C@H]1C (single isomer, unassigned) [Example 1251]
Output: 1 (yes)

Input: Moving on to the next molecule: Cn1c(=O)cc(N2CCN(C(c3ccc(F)cc3)c3ccc(F)cc3)C(C)(C)C2)c2nc(C#N)ccc21 [Example 171]
Output: 0 (no)

Input: Moving on to the next molecule: C[C@@H]1CN(c2cc(=O)n(C)c3ccc(C#N)nc23)[C@@H](C)CN1C(c1ccc(F)cc1)c1cccnn1 (single isomer, unassigned) [Example 383]
Output: 0 (no)

Input: Moving on to the next molecule: COc1cc(F)ccc1C(c1ccc(F)cc1)N1C[C@H](C)N(c2c([N+](=O)[O-])c(=O)n(C)c3ccc(C#N)nc23)C[C@H]1C (single isomer, unassigned) [Example 122]
Output: 0 (no)

Input: Moving on to the next molecule: Cc1ccc(C(c2ccc(C#N)cc2)N2C[C@H](C)N(c3cc(=O)n(C)c4ccc(C#N)nc34)C[C@H]2C)nc1 (single isomer, unassigned) [Example 361]
Output: 1 (yes)
